Where do the numbers come from? From patent US20160264593A1.

- Assay Name: in vivo
- Experimental Conditions: male, Sprague-Dawley, rat, in vivo, po, 10 mg/kg, MRT of 100
- Procedure: A pharmacokinetic study of 151 was conducted in SD rats. The study consisted of two dose levels at 1.0 (iv) and 10 (oral) mg/kg. The blood samples were collected at predetermined times from rats and centrifuged to separate plasma. […] The pharmacokinetic parameters of 151 following iv and oral administration to SD rats were calculated. The absolute bioavailability was evaluated. […] Quantification was achieved by the external standard method. […]
Readout Name: MRT (h)
Field: numeric (h). Do not append units.

CN1CCN(C(=O)C2C3CCC(O3)C2C(=O)O)CC1 (stereo not shown) [Compound 100] yielded MRT of 2.1

###

- Assay Name: Pharmacokinetic study of 153 (and metabolite endothal) in SD rats, iv and po; plasma, liver, brain
- Assay type: in vivo
- Experimental Conditions: female, SD, rat, in vivo, po, 1.25 mg/kg, 153 po 1.25 mg/kg; read-out: AUC of 153 in plasma
Readout Name: AUC (ng·h/mL)
Please reply with the bare figure in ng·h/mL and do not write the unit itself.

Noted for CCCOC(=O)C1C2CCC(O2)C1C(=O)N1CCN(C)CC1 (stereo not shown) : its AUC reads 164

###

- Assay Name: in vivo
- Parameters: species or system SD rats
- Experimental Conditions: male, Sprague-Dawley, rat, iv, 1.4 mg/kg, brain concentration of 113
Readout Name: concentration at 0.25 h (ng/g)
Give just the numeric value; ng/g need not be written.

Lookup result for CN1CCN(C(=O)C2C(C(=O)OCC(Cl)(Cl)Cl)[C@H]3CC[C@@H]2O3)CC1 (stereo partly shown) ; measured concentration at 0.25 h: 86.2

###

- Assay Name: Pharmacokinetic study of 153 (and metabolite endothal) in SD rats, iv and po; plasma, liver, brain
- Type: in vivo
- Experimental Conditions: female, Sprague-Dawley (SD), rat, in vivo, po, 1.25 mg/kg, 153 in plasma, PO 1.25 mg/kg, Mean; read-out: Cmax
- Method: The blood, liver and brain tissue samples were collected at predetermined times from rats. […] Compound were diluted shortly before use in 4% sodium bicarbonate for sterile injection (this is the standard pediatric solution of NaHCO3 with a pH of about 8.5). Compound 153 was freshly prepared by diluting the drugs shortly before use in 4% sodium bicarbonate for sterile injection (this is the standard pediatric solution of NaHCO3 with a pH of about 8.5). […]
Readout Name: Cmax (ng/mL)
Answer format: numeric, ng/mL implied, no suffix.

Reported Cmax of CCCOC(=O)C1C2CCC(O2)C1C(=O)N1CCN(C)CC1 (stereo not shown) : 239

###

- Assay Name: in vivo
- Experimental Conditions: female, Sprague-Dawley, rat, in vivo, iv, 1.5 mg/kg, mean Cmax of 100 in liver
Readout Name: Cmax

Notebook: CN1CCN(C(=O)C2C3CCC(O3)C2C(=O)O)CC1 (stereo not shown) [Compound 100] , Cmax read as 586 to 2550 ng/g

###

- Assay Name: Pharmacokinetic study of 100 (and metabolite endothal) in SD rats, iv; plasma, liver, brain
- Experimental Conditions: female, SD, rat, in vivo, iv, 1.5 mg/kg, Endothal liver concentration, 100 iv 1.5 mg/kg, SD rats, 24 hr, mean
Readout Name: concentration at 24 h (ng/g)
Reply numerically in ng/g, unit not repeated.

The reported value for O=C(O)C1C2CCC(O2)C1C(=O)O (stereo not shown) [Endothal] in terms of concentration at 24 h is 63.5
